Recorded kon by entry
Target: T1, native human ApoC3 (human, UniProt P02656 21-99)
T1 construct: also called nhuApoC3; native huApoC3
T1 sequence (P02656 21-99): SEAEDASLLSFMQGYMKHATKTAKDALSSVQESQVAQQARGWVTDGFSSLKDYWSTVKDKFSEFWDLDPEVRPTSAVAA
Assay: SPR, ApoC3 over captured IgG1, pH 5.5
Procedure: An inverted SPR assay was designed in which a test antibody was captured on an SPR chip, human ApoC3 protein was injected, and binding of ApoC3 to the antibody was measured. […] The resulting sensorgrams were analyzed using the BIAevaluation 4.1 software using Langmuir 1:1 binding model to derive binding kinetics. […]
Give your result in M⁻¹ s⁻¹ as a bare value.

- binder: "mAb3 (antibody, IgG1, V domains shown, Produced as full length IgG1 (kappa) in ExpiCHO-S cells; also called humanized anti-ApoC3 antibody mAb3) VH: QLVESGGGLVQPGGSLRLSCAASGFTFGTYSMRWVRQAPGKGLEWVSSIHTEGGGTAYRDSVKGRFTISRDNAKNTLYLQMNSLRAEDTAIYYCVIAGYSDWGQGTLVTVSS VL: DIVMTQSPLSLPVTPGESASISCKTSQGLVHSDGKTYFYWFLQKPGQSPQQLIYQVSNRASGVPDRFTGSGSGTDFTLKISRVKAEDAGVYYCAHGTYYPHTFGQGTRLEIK"
  kon (M⁻¹ s⁻¹): 102000
- binder: "mAb2 (antibody, IgG1, V domains shown, Produced as full length IgG1 (kappa) in ExpiCHO-S cells; also called humanized anti-ApoC3 antibody mAb2) VH: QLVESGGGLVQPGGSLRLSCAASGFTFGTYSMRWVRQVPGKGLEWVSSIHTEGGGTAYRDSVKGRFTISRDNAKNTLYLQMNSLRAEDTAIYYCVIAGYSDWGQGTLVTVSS VL: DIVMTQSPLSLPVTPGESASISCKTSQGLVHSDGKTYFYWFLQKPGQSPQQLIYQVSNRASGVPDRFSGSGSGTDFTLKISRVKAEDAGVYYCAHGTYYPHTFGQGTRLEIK"
  kon (M⁻¹ s⁻¹): 96600

API: the following record is the query input.
Exercise: Give the reported kon for this binder. mAb4 (antibody, IgG1, V domains shown, Produced as full length IgG1 (kappa) in ExpiCHO-S cells; also called humanized anti-ApoC3 antibody mAb4) VH: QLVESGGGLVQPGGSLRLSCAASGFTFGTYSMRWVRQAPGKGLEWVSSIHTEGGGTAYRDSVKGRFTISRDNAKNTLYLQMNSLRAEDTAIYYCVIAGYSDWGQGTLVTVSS VL: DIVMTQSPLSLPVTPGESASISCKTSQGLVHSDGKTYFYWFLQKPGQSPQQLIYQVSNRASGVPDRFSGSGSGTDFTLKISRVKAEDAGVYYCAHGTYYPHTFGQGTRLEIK
Key: 83100
